species on record: Mus musculus; experiment: Selectivity for mouse adenosine A3 receptor over mouse adenosine A1 receptor
Recorded metric: Ratio Ki

In [3]: df
Out[3]:
                                   molecule  observed_measurement
0  CNC(=O)C12C[C@@H]1[C@@H](n1cnc3c(NCC(c4ccccc4)c4ccccc4)nc(Cl)nc31)[C@H](O)[C@@H]2O (single isomer, unassigned)                   4.1
1  CNC(=O)C12C[C@@H]1[C@@H](n1cnc3c(NCc4cccc(Cl)c4)nc(SC)nc31)[C@H](O)[C@@H]2O (single isomer, unassigned)                    83
2  CNC(=O)C12C[C@@H]1[C@@H](n1cnc3c(NCc4cccc(Br)c4)nc(Cl)nc31)[C@H](O)[C@@H]2O (single isomer, unassigned)                   9.8
3  CNC(=O)[C@@]12C[C@@H]1[C@@H](n1cnc3c(NCc4cccc(Cl)c4)nc(C#CCCCC(=O)NCCN)nc31)[C@H](O)[C@@H]2O                    64

----------
Ratio Ki reference
organism: Mus musculus; assay: Selectivity for mouse adenosine A3 receptor over mouse adenosine A1 receptor
Recorded metric: Ratio Ki

>>> print(df.to_string())
                                   compound  recorded_metric  observed_measurement
0  CNC(=O)[C@@]12C[C@@H]1[C@@H](n1cnc3c(NCc4cccc(C#CCCCC(=O)NCCN)c4)nc(Cl)nc31)[C@H](O)[C@@H]2O         Ratio Ki                    13
1  CNC(=O)[C@@]12C[C@@H]1[C@@H](n1cnc3c(NCc4cccc(Cl)c4)nc(C#C[Si](C)(C)C)nc31)[C@H](O)[C@@H]2O         Ratio Ki                  35.6
2  CNC(=O)[C@@]12C[C@@H]1[C@@H](n1cnc3c(NOC)nc(Cl)nc31)[C@H](O)[C@@H]2O         Ratio Ki                   1.3
3  CNC(=O)C12C[C@@H]1[C@@H](n1cnc3c(NCc4cc(OC)ccc4OC)nc(Cl)nc31)[C@H](O)[C@@H]2O (single isomer, unassigned)         Ratio Ki                    17

----------
biological target: Adenosine receptor A2a (Homo sapiens, UniProt P29274); test: Displacement of radioligand from human A2A adenosine receptor expressed in HEK293 cells at 10 uM; type: cell-based
Sequence (P29274 whole entry): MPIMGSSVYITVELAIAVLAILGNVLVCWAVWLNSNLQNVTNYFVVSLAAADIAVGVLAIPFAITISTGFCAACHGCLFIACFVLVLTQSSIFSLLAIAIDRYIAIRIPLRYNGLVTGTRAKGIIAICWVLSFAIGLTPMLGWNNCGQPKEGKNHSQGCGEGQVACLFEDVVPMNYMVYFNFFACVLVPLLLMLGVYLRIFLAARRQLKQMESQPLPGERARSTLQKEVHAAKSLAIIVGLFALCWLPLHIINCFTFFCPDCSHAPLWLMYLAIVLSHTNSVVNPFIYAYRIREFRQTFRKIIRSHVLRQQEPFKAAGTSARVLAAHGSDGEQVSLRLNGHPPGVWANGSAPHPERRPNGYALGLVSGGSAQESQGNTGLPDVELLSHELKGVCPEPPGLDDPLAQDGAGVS
Reported inhibition values follow for various compounds
Recorded metric: inhibition (%)

>>> df
                                    compound  observed_measurement
 0  CNC(=O)[C@@]12C[C@@H]1[C@@H](n1cnc3c(NCc4cccc(Cl)c4)nc(C#C[Si](C)(C)C)nc31)[C@H](O)[C@@H]2O                    52
 1  CNC(=O)[C@@]12C[C@@H]1[C@@H](n1cnc3c(NCc4cccc(C#CCCCC(=O)NCCNC(C)=O)c4)nc(Cl)nc31)[C@H](O)[C@@H]2O                    80
 2  C#Cc1nc(NCc2cccc(Cl)c2)c2ncn([C@H]3[C@H](O)[C@H](O)[C@]4(C(=O)NC)C[C@H]34)c2n1                    48
 3  CNC(=O)[C@@]12C[C@@H]1[C@@H](n1cnc3c(NCc4cccc(Cl)c4)nc(C#CCCCC(=O)O)nc31)[C@H](O)[C@@H]2O                    43
 4  CNC(=O)[C@@]12C[C@@H]1[C@@H](n1cnc3c(NCc4cccc(C#CCCCC(=O)O)c4)nc(Cl)nc31)[C@H](O)[C@@H]2O                    14
 5  CNC(=O)[C@@]12C[C@@H]1[C@@H](n1cnc3c(NC)nc(Cl)nc31)[C@H](O)[C@@H]2O                     6
 6  CNC(=O)[C@@]12C[C@@H]1[C@@H](n1cnc3c(NCc4cccc(Cl)c4)nc(C#CCCCC(=O)OC)nc31)[C@H](O)[C@@H]2O                    49
 7  CNC(=O)[C@@]12C[C@@H]1[C@@H](n1cnc3c(NCc4cccc(C#CCCCC(=O)NCCN)c4)nc(Cl)nc31)[C@H](O)[C@@H]2O                    58
 8  CNC(=O)C12C[C@@H]1[C@@H](n1cnc3c(NCc4cccc(C#CCO)c4)nc(Cl)nc31)[C@H](O)[C@@H]2O (single isomer, unassigned)                    56
 9  CCCC#Cc1nc(NCc2cccc(Cl)c2)c2ncn([C@H]3[C@H](O)[C@H](O)[C@]4(C(=O)NC)C[C@H]34)c2n1                    80
10  CNC(=O)[C@@]12C[C@@H]1[C@@H](n1cnc3c(NOC)nc(Cl)nc31)[C@H](O)[C@@H]2O                     2
11  CNC(=O)[C@@]12C[C@@H]1[C@@H](n1cnc3c(NCc4cccc(Cl)c4)nc(C#CCCCC(=O)NCCN)nc31)[C@H](O)[C@@H]2O                    81
12  CNC(=O)[C@@]12C[C@@H]1[C@@H](n1cnc3c(NCc4cc(OC)ccc4OC)nc(I)nc31)[C@H](O)[C@@H]2O                    35
